Where do the numbers come from? From paper PMC9370283.

What melting point was measured for each of the following?

**Q:** GET /values?readout=melting point&item= O=C1CC(=O)N(S(=O)(=O)c2ccc3[nH]c(=O)c(=O)[nH]c3c2)N1 [Compound 6]
**A:** 270 to 272 °C

**Q:** Query (compound): O=C(NC(=S)NNS(=O)(=O)c1ccc2[nH]c(=O)c(=O)[nH]c2c1)c1ccccc1 [Compound 8b] ; field requested: melting point
**A:** 265 to 267 °C

**Q:** # melting point lookup, item COc1ccc(-n2c(C)csc2=NNS(=O)(=O)c2ccc3[nH]c(=O)c(=O)[nH]c3c2)cc1 [Compound 10a]
**A:** 130 to 132 °C

**Q:** Bench note: what melting point did COc1ccc(N2C(=O)CSC2=NNS(=O)(=O)c2ccc3[nH]c(=O)c(=O)[nH]c3c2)cc1 [Compound 12a] show?
**A:** 292 to 294 °C

**Q:** Please look up its melting point: COc1ccc(-n2c(=O)cc(O)n(NS(=O)(=O)c3ccc4[nH]c(=O)c(=O)[nH]c4c3)c2=S)cc1 [Compound 9a]
**A:** 205 to 207 °C

**Q:** Which melting point value is on record for O=C(c1ccccc1)n1c(=O)cc(O)n(NS(=O)(=O)c2ccc3[nH]c(=O)c(=O)[nH]c3c2)c1=S [Compound 9b] ?
**A:** 270 to 272 °C

**Q:** I am curious: what melting point value has been reported for COc1ccc(-n2c(C)c(C(C)=O)sc2=NNS(=O)(=O)c2ccc3[nH]c(=O)c(=O)[nH]c3c2)cc1 [Compound 11a] ?
**A:** 185 to 187 °C

**Q:** Can you look up the measured melting point of O=C1CCC(=O)N1NS(=O)(=O)c1ccc2[nH]c(=O)c(=O)[nH]c2c1 [Compound 7a] for me?
**A:** 292 to 294 °C

**Q:** Given the entry NNS(=O)(=O)c1ccc2[nH]c(=O)c(=O)[nH]c2c1 [Compound 3] , report its measured melting point.
**A:** 285 to 287 °C

**Q:** Return reported melting point; argument: O=C1c2ccccc2C(=O)N1NS(=O)(=O)c1ccc2[nH]c(=O)c(=O)[nH]c2c1 [Compound 7c]
**A:** 207 to 209 °C

**Q:** I'd like to know its melting point. The compound in question is O=C1C=CC(=O)N1NS(=O)(=O)c1ccc2[nH]c(=O)c(=O)[nH]c2c1 [Compound 7b]
**A:** 295 to 297 °C

**Q:** Give its melting point value. Item: O=C1CSC(=NNS(=O)(=O)c2ccc3[nH]c(=O)c(=O)[nH]c3c2)N1C(=O)c1ccccc1 [Compound 12b]
**A:** 290 to 292 °C
